# Tested system: recombinant HDAC8 (Homo sapiens, UniProt Q9BY41)
# Construct: purchased BPS Bioscience
# Sequence (Q9BY41 1-377): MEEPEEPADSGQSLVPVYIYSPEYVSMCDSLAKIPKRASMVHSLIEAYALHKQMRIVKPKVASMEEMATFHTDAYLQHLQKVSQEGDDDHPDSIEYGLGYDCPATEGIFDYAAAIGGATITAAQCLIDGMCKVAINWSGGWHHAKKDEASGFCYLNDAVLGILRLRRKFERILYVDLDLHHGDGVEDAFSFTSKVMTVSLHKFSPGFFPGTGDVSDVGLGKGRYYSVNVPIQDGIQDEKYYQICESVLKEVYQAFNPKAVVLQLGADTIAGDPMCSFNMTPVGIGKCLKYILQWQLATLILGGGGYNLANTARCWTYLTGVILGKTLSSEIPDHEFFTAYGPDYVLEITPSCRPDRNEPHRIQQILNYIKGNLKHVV
# Protocol summary: Recombinant HDAC8 inhibition (HDAC-Glo)
# Format: biochemical
# Condition description: 1.0 × 10^−7 M; read-out: Deacetylase activity (%) HDAC8
activity at 0.1 µM: recorded values
Write the numeric value and append its unit.

Compound: CCC(CCCC(=O)Nc1ccccc1)CCC(=O)NO (racemic)
activity at 0.1 µM: 55%
--
Compound: CCCCC(CCCC(=O)Nc1ccccc1)CCC(=O)NO (racemic)
activity at 0.1 µM: 41%
--
Compound: CCCCCCC(CCCC(=O)Nc1ccccc1)CCC(=O)NO (racemic)
activity at 0.1 µM: 42%
--
Compound: O=C(CC[C@@H](CCCC(=O)Nc1ccccc1)Cc1ccccc1)NO [(R)-1f]
activity at 0.1 µM: 22%
--
Compound: O=C(CCC(CCCC(=O)Nc1ccccc1)Cc1ccccc1)NO (racemic)
activity at 0.1 µM: 34%

activity at 0.1 µM measured on O=C(CC[C@H](CCCC(=O)Nc1ccccc1)Cc1ccccc1)NO [(S)-1f] = 61%
